Test system: SRPK3
Conditions: concentration: 1 μM, replicates: in singlicate; n = 1
endpoint-name: %Inh (%)
All answers are understood in %, so give the number only.

Checklist item: %Inh tested on SRPK3, entry "Clc1cc(Nc2ncnc3cc[nH]c23)ccc1OCc1ccccn1" , value?
19

Recorded %Inh for "COc1cc2c(Nc3cccc(NC(=O)c4ccccc4)c3)ncnc2cc1OCCCN1CCOCC1" with SRPK3, please?
23

Given the entry "O=c1cc(N2CCOCC2)nc2n(Cc3cccc(Cl)c3)ccn12" , what %Inh was observed with SRPK3?
51

# value lookup — system SRPK3, readout %Inh, item O=C(Nc1ccccc1F)NC1CCN(c2ccnc(Nc3ccc(F)cc3)n2)C1 (stereo not drawn)
3

Lab note: need %Inh with SRPK3 for entry "CC(C)N1CCC(n2cnc(-c3ccc(F)cc3)c2-c2ccnc(N)n2)CC1" , please look it up.
6

Observed %Inh on SRPK3 for "CS(=O)(=O)CCNCc1nc(-c2ccc3ncnc(Nc4ccc(OCc5cccc(F)c5)c(Cl)c4)c3c2)cs1.Cl" , please.
0

For the record "Nc1nc(-c2ccc3c(N)n[nH]c3c2)cc(N2CCCCC2)n1" , what value of %Inh is listed for SRPK3?
0

Find the measured %Inh: item "Clc1cccc(-c2nc(Nc3ccncc3)c3ccccc3n2)c1" , target or system SRPK3.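 Also: KINOMEscan kinase panel screen.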
0

Given the entry "O=C(Nc1ccccc1)Nc1ccc(Oc2ccc3nccn3n2)cc1" , what %Inh was observed with SRPK3?
16
